target: Ornithine decarboxylase (ODC) (Rattus norvegicus, UniProt P09057); construct: prepared from the livers of rats which have been injected with thioacetamide; from tissue; host or cells: liver of thioacetamide-injected rats, purified about ten fold by acid treatment at pH 4.6; assay: In vitro inhibition of ornithine decarboxylase (ODC) prepared from livers of thioacetamide-injected rats (time-dependent inactivation, 14CO2 release); format: biochemical; conditions: rat liver ODC, 37°, pH 7.1; calculated by method of Kitz and Wilson; read-out: KI (apparent dissociation constant)
Sequence (P09057 whole entry): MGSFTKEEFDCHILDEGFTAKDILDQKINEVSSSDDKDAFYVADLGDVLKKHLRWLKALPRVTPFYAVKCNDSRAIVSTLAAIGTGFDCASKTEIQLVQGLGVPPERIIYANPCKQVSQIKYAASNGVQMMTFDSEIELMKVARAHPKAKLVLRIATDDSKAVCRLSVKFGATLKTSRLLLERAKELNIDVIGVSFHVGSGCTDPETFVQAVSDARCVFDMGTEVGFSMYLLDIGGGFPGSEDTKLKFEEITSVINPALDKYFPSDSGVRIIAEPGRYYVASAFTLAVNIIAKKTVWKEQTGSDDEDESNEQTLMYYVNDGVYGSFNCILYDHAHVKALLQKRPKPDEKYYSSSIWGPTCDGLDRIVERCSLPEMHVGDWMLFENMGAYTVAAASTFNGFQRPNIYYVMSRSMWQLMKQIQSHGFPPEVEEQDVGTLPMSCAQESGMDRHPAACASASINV

[
  {
    "MOLECULE": "C#CC(N)CCC(N)CF.Cl.Cl (stereo not shown) [Example 1, DIHYDROCHLORIDE]",
    "Ki [µM]": 50
  }
]
